assay: protein stability index of a GFP-peptide fusion (yeast GPS) (PSI 1-4); higher = more stable; sorted into four equal gates, so the index is relative within each strain; conditions: ubr1∆
Note to self: class labels come from recorded protein stability index, ranges listed here: I: < 2; II: ≥ 2 and < 3; III: ≥ 3

IDLDNDEDDDEDVTDQE [DLS1] | III
LKENNAILQKSLKNVTE [YIL149C/MLP2] | II
AVYETLISRMIFIATQL [BRR2] | I
NRKVLQALEKIGIVEIS [RPS19A] | II
ILGDLGKEFGTTPEKPE [FAS2] | II

Now examine the next entry.
Which protein stability index band matches TPKITAAEKSFKPPKNK [SEC65] ? III

Cited source for all entries: the supplement of paper PMC9732359
